ASSAY METRIC: melting point

>  <MOLECULE>
COCCNC(=O)c1cc(C)nc(-c2cccc3cc(Cc4cccc(C(F)(F)F)c4)sc23)c1

>  <REPORTED>
115 to 116 °C

$$$$
>  <MOLECULE>
COc1ccc2[nH]c(SCc3ncc(C)c(N(C)C)c3Cl)nc2c1

>  <REPORTED>
109 to 110 °C

$$$$
>  <MOLECULE>
CCN(CC)CCOc1ccc2c(c1)C(=O)c1ccc(OCCN(CC)CC)cc1C2=O

>  <REPORTED>
169 to 170 °C

$$$$
>  <MOLECULE>
Nc1nc(-c2ccc(C(=O)N3CCN(S(=O)(=O)c4ccc5cc(Br)ccc5c4)CC3)cc2)c[nH]1

>  <REPORTED>
274 to 275 °C

$$$$
>  <MOLECULE>
Clc1cccc(Cn2ccc(CN3CCC(c4ccccc4)(c4ccccc4)CC3)n2)c1

>  <REPORTED>
136 to 137 °C

$$$$
>  <MOLECULE>
O=C(O)c1c(Cl)ccc(S(=O)(=O)N2CCCCC2)c1Cl

>  <REPORTED>
142 to 145 °C

$$$$
>  <MOLECULE>
Cc1oc(-c2ccccc2)nc1COc1ccc(CCc2nnn[nH]2)cc1

>  <REPORTED>
203 to 204 °C

$$$$
>  <MOLECULE>
CCCC1CCC=CCCCC(=O)OCCN1C(=O)OCC1c2ccccc2-c2ccccc21 (stereo unspecified)

>  <REPORTED>
148 to 150 °C

$$$$
>  <MOLECULE>
COc1ccccc1CN1C(=O)C2CCCC2N(C(=O)CN2C(=O)c3ccccc3C2=O)c2ccccc21 (stereo unspecified)

>  <REPORTED>
261 to 272 °C

$$$$
>  <MOLECULE>
CCCCCCCCC(CCC(=O)O)C(C)=O (stereo unspecified)

>  <REPORTED>
36 to 38 °C

$$$$
>  <MOLECULE>
O=C(O)c1ccc(Br)c(S)c1

>  <REPORTED>
315 to 317 °C

$$$$
>  <MOLECULE>
Cc1c(=O)o[n-][n+]1CCSC1CCCCC1

>  <REPORTED>
82 to 83 °C

$$$$
>  <MOLECULE>
N#Cc1ccc2[nH]cc(-c3nc(-c4cccnc4)cs3)c2c1

>  <REPORTED>
240 °C

$$$$
>  <MOLECULE>
O=C1CC(c2cccs2)CN1 (stereo unspecified)

>  <REPORTED>
75 to 76.5 °C

$$$$
>  <MOLECULE>
Cc1ccsc1-c1ccc(C(C)(N)C(=O)O)cc1 (stereo unspecified)

>  <REPORTED>
> 250 °C

$$$$
>  <MOLECULE>
Cc1cccc(C)c1NC(=O)NCC1(c2ccccc2)CCCC1

>  <REPORTED>
201 to 202 °C

$$$$
>  <MOLECULE>
CCOC(=O)c1cc2cc(OCCOC)cc(N)c2[nH]1

>  <REPORTED>
162 to 163 °C

$$$$
>  <MOLECULE>
O=[N+]([O-])c1cc(Cl)cc(Cc2cc(Cl)cc([N+](=O)[O-])c2O)c1O

>  <REPORTED>
163 to 170 °C

$$$$
>  <MOLECULE>
COc1ccc(C(=O)Nc2ccccc2)cc1NCc1ccccc1F

>  <REPORTED>
142 to 144 °C

$$$$
>  <MOLECULE>
CCCc1c(OCC(O)COc2cccc(N)c2C#N)ccc(C(C)=O)c1O (stereo unspecified)

>  <REPORTED>
123 to 125 °C

$$$$
>  <MOLECULE>
CC1C=CC(=O)OC1=O (stereo unspecified)

>  <REPORTED>
70 to 72 °C

$$$$
>  <MOLECULE>
CC12CCC(=O)C(N)=C1CCC1C2CCC2(C)C(OC3CC3)CCC12 (stereo unspecified)

>  <REPORTED>
85 to 88 °C

$$$$
>  <MOLECULE>
Cc1cc(N)c(OCc2ccccc2)c(Cl)c1C

>  <REPORTED>
57 to 58 °C

$$$$
>  <MOLECULE>
CC1O[C@@](Cn2cncn2)(c2ccc(Cl)cc2Cl)[C@@H](C)N1S(C)(=O)=O (relative stereo)

>  <REPORTED>
160 to 170 °C

$$$$
>  <MOLECULE>
CN1Cc2c(c3ccccc3c3ccccc23)C1

>  <REPORTED>
122 to 123 °C

$$$$
>  <MOLECULE>
CCOCC1OC(n2cnc3c(N)nc(Cl)nc32)C(O)C1O (stereo unspecified)

>  <REPORTED>
117 to 119 °C

$$$$
